# Target Of Assay: hGPR119 (Homo sapiens)
# Construct: expressed in transfected cells; host or cells: CHO
# Sequence (Q8TDV5 1-335): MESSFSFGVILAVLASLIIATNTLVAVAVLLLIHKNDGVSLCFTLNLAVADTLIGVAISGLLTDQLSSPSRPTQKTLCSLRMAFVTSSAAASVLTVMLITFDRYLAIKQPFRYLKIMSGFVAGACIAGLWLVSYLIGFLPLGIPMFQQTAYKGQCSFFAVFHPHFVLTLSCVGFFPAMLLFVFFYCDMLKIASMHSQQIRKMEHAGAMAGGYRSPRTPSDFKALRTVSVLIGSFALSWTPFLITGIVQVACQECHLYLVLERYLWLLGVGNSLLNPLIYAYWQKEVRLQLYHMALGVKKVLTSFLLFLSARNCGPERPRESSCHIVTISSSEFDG
# Method: In vitro cyclic AMP assay (Cisbio dynamic 2 HTRF kit) in CHO-hGPR119 cells
# Format: cell-based
# Test Context: 1 h, cAMP, compound at 1 μM, 60 min, read-out: Induction (% induction at 1 μM)
For each entry below, report its activation at 1 µM value.
Answers are plain numbers, in %.

CC(C)c1noc(N2CCC(C(C)Oc3nc4ccc(-c5cnsc5)nc4s3)CC2)n1 (stereo not drawn) [Compound 1124] :: 30
CCc1cnc(N2CCC([C@H](C)Oc3nc4ccc(-c5ccnc(F)c5)nc4s3)CC2)nc1 [Compound 1104] :: 84
CC(C)c1noc(C2CCN(c3nc4ccc(-c5ccc(S(C)(=O)=O)cc5)nc4s3)C2)n1 (stereo not drawn) [Compound 1021] :: 13
CC(C)c1noc(N2CCC([C@H](C)Oc3nc4ccc(-c5ccc(S(=O)(=O)C6CC6)cc5)nc4s3)CC2)n1 [Compound 1095] :: 84
C=Cc1ccc(N2CCC(C(C)Oc3nc4ccc(-c5ccc(S(C)(=O)=O)cc5)nc4s3)CC2)nc1 (stereo not drawn) [Compound 1088] :: 60

Value sought for every listed compound: activation at 1 µM.
1. CC(C)c1noc(N2CCC([C@@H](C)Oc3nc4ccc(-c5ccncc5)nc4s3)CC2)n1 [Compound 1070]
2. CC(C)c1noc(N2CCC(C(C)Oc3nc4ccc(-c5ccc(C(=O)N6CCOCC6)cc5)nc4s3)CC2)n1 (stereo not drawn) [Compound 1051]

[83, 24]
